So I've got a bunch of compounds here, and I need their %Inh values.
Test system: CDK4
Conditions: concentration: 1 μM, replicates: in singlicate; n = 1;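 further: KINOMEscan kinase panel screen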
Hi, when you answer, please include the unit after the number. Thanks!

Incoming: # get_value(readout='%Inh', item= CN(C)CCN(C)C(=O)c1cc(-c2ccncc2)c(-c2ccc(Cl)c(O)c2)o1.Cl.Cl )
Outgoing: 0%

Incoming: Next compound: CS(=O)(=O)c1ccc(-c2nc3n(c2-c2ccncc2)CCC3)cc1
Outgoing: 9%

Incoming: Next compound: Cc1ccccc1-n1cnc2c(N)ncnc21
Outgoing: 0%

Incoming: Next compound: COc1ccc2nc(-c3cccc(C)n3)nc(Nc3ccncc3)c2c1
Outgoing: 0%

Incoming: Next compound: COc1cc2nccc(Nc3ccc(NC(=O)c4ccc(C)cc4)c(O)c3)c2cc1OC.Cl
Outgoing: 35%

Incoming: Next compound: Cc1cc(-c2ccc3c(c2)CC[C@@H](N[C@@H](C)c2ccccc2)C3)cnc1N.Cl
Outgoing: 26%

Incoming: Next compound: Cc1cc(N2Cc3ccccc3C2)nc(Nc2ccc(S(=O)(=O)N3CCOCC3)cc2)n1.Cl
Outgoing: 0%

Incoming: Next compound: Fc1cccc(COc2nnc(-c3ccc4c(c3)CCO4)o2)c1
Outgoing: 0%

Incoming: Next compound: CC(=O)Nc1nc2cnc(Nc3cc(NC(=O)c4cccc(CCC#N)c4)ccc3C)nc2s1
Outgoing: 2%

Incoming: Next compound: CC(C)(C)c1ccc(C(=O)Nc2cn3cc(-c4cccnc4)ccc3n2)cc1
Outgoing: 0%

Incoming: Next compound: Cn1ccc2ncnc(Oc3cccc(C(=O)Nc4ccccc4)c3)c21
Outgoing: 0%

Incoming: Next compound: Cc1c(O)cccc1Nc1ccnc2ccc(C(F)(F)F)cc12.Cl
Outgoing: 33%

Incoming: Next compound: Fc1cc(Cl)ccc1Nc1ccnc2cc(I)ccc12
Outgoing: 23%

Incoming: Next compound: O=c1cc(N2CCOCC2)nc2n(Cc3cccc(Cl)c3Cl)ccn12
Outgoing: 0%

Incoming: Next compound: CN1C(=O)C(Nc2ccc(Cl)c(C(=O)O)c2)=C(c2ccc(Cl)cc2)C1=O
Outgoing: 47%

Incoming: Next compound: Cc1cccc(-c2nc(Nc3ccc4[nH]ncc4c3)c3ccccc3n2)n1
Outgoing: 0%

Incoming: Next compound: Cc1csc(-c2nc(Nc3ccncc3)c3ccccc3n2)n1
Outgoing: 20%

Incoming: Next compound: Cc1ccc(-c2cc(-c3c[nH]nc3-c3ccccn3)ccn2)cc1
Outgoing: 43%

Incoming: Next compound: Cc1ccc(C(=O)Nc2ccc(Nc3ccnc4cc(-c5ccccn5)ccc34)cc2O)cc1.Cl
Outgoing: 32%

###

Test system: FAK
Construct: gene PTK2
Conditions: concentration: 1 μM, replicates: in singlicate; n = 1
MEASURE: %Inh (%)
Could you give me the number in %? Just the number is fine.

Incoming: # get_value(readout='%Inh', item= Cc1cccc(-c2nc(C)cc(Nc3ccncc3)n2)n1 )
Outgoing: 0

Incoming: Next compound: Cc1ccc(-c2cc(-c3c[nH]nc3-c3ccccn3)ccn2)cc1
Outgoing: 0

Incoming: Next compound: O=C1NC(=O)C(N2CCc3ccccc32)=C1c1ccccc1Cl
Outgoing: 0

Incoming: Next compound: C[C@@H]1CCCCN1c1cc(-c2ccc3c(N)n[nH]c3c2)nc(N)n1
Outgoing: 0

Incoming: Next compound: NC(=O)c1nnc2ccccc2c1N
Outgoing: 12

Incoming: Next compound: COc1ccc(Nc2nccc(-c3cccc(NC(=O)c4cc5cc(F)ccc5[nH]4)c3)n2)cc1
Outgoing: 1

Incoming: Next compound: COc1ccc2nc(-c3cccc(C)n3)nc(Nc3ccncc3)c2c1
Outgoing: 0

Incoming: Next compound: Cc1csc(-c2nc(Nc3ccncc3)c3ccccc3n2)n1
Outgoing: 3

Incoming: Next compound: COc1ccc(C2=C(Nc3cccc(C(=O)O)c3)C(=O)NC2=O)cc1
Outgoing: 13

Incoming: Next compound: Cc1cccc(-c2cc(Nc3ccncc3)c3ccccc3n2)n1
Outgoing: 0

Incoming: Next compound: COc1ccc(CNC(=O)NC2CCN(c3ccnc(Nc4cc(OC)c(OC)c(OC)c4)n3)C2)cc1 (centres unmarked)
Outgoing: 0

Incoming: Next compound: Cn1ccc2ncnc(Oc3cccc(C(=O)Nc4ccccc4)c3)c21
Outgoing: 5

Incoming: Next compound: CC(C)(C)c1ccc(C(=O)Nc2cn3cc(Cl)ccc3n2)cc1
Outgoing: 0

Incoming: Next compound: Fc1cccc(COc2nnc(-c3ccc4c(c3)CCO4)o2)c1
Outgoing: 0

Incoming: Next compound: Cn1cncc1-c1ccc2ncnc(Nc3ccc(OCc4ccccc4)cc3)c2c1
Outgoing: 0

Incoming: Next compound: Cc1c(O)cccc1Nc1ccnc2ccc(C(F)(F)F)cc12.Cl
Outgoing: 0

Incoming: Next compound: Nc1nc(-c2nccs2)c(-c2ccnc3ccccc23)s1
Outgoing: 0

Incoming: Next compound: COc1cc2nccc(Nc3ccc(NC(=O)c4ccc(C)cc4)c(O)c3)c2cc1OC.Cl
Outgoing: 0

Incoming: Next compound: CCn1c(-c2cccnc2O)nc2cnccc21
Outgoing: 0

Incoming: Next compound: Cc1cc(NCC(c2ccccc2)c2ccccc2)nc(NCc2ccc(C(F)(F)F)cc2)n1
Outgoing: 0

Incoming: Next compound: Cc1cccc(-c2nc(-c3ccc(S(C)(=O)=O)cc3)sc2-c2ccnc(NCCc3ccccc3)c2)c1
Outgoing: 0

Incoming: Next compound: CS(=O)(=O)c1ccc(-c2nc3n(c2-c2ccncc2)CCC3)cc1
Outgoing: 0

Incoming: Next compound: CC(=O)Nc1nc2cnc(Nc3cc(NC(=O)c4cccc(CCC#N)c4)ccc3C)nc2s1
Outgoing: 7

Incoming: Next compound: COc1cc2ncnc(Nc3ccc4nc(-c5ccccc5)[nH]c4c3)c2cc1OC.Cl
Outgoing: 0

Incoming: Next compound: COc1ccccc1CNC(=O)c1cc(C(=O)c2ccccc2C)c[nH]1
Outgoing: 0

Incoming: Next compound: Cc1cccc(-c2nc(Nc3cccc(C(N)=O)c3)c3ccccc3n2)n1
Outgoing: 0

Incoming: Next compound: COc1cccc(NC(=O)NC2CCN(c3ccnc(Nc4ccc(F)cc4)n3)C2)c1 (centres unmarked)
Outgoing: 0

Incoming: Next compound: Nc1ncnc2[nH]c(-c3ccccc3)nc12
Outgoing: 8

Incoming: Next compound: Cc1cccc(-c2nc(Nc3ccc4[nH]ncc4c3)c3ccccc3n2)n1
Outgoing: 0

Incoming: Next compound: O=C(Nc1ccc2c(c1)OCO2)NC1CCN(c2ccnc(Nc3ccc(F)cc3)n2)C1 (centres unmarked)
Outgoing: 0

Incoming: Next compound: Cc1nnc(-c2ccc3occ(-c4ccc(S(C)=O)cc4)c3c2)[nH]1 (centres unmarked)
Outgoing: 0

Incoming: Next compound: Fc1cc(Cl)ccc1Nc1ccnc2cc(I)ccc12
Outgoing: 0

Incoming: Next compound: Cn1ccc2ncnc(Oc3ccc(NC(=O)Nc4ccccc4)cc3)c21
Outgoing: 8

Incoming: Next compound: CCn1c(-c2ccccn2)nc2cnccc21
Outgoing: 0

Incoming: Next compound: COc1cccc(-c2cc(-c3c[nH]nc3-c3ccccn3)ccn2)c1
Outgoing: 0
